- System: T1, mouse GPVI extracellular domain fused at its C-terminus to human IgG1 Fc (GPVI-Fc) (mouse; human)
- T1 construct: also called mGPVI; mouse GPVI-Fc
- T1 sequence (chain, as listed by the source limits assumed): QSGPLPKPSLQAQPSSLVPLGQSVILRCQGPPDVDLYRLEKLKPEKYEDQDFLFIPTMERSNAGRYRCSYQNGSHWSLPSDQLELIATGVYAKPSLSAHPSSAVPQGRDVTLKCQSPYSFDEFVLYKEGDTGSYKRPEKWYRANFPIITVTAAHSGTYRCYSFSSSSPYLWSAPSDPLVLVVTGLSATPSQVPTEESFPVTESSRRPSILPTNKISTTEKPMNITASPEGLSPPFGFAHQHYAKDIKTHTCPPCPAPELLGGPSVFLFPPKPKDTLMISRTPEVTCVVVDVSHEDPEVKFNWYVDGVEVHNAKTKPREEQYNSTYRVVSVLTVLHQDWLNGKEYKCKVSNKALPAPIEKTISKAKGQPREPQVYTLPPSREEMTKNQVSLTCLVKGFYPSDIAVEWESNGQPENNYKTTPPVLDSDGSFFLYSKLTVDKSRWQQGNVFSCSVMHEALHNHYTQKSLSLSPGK
- Assay details: Competition ELISA (MSD): mouse GPVI-Fc preincubated with Fab, then on coated VitroCol (competitor)
A collection of binders and their measured Max. inhibition at 200 nM Fab [%]
# unit: % | format: bare number

Example binders with recorded Max. inhibition at 200 nM Fab [%]:
Fab #2 comprising a modified heavy chain constant region (Fab, V domains shown, Human Fab from the Ylanthia library; produced in HKB11 cells; also called Fab #2 mod; HC) VH: QVQLVESGGGLVKPGGSLRLSCAASGFSFSDHYMSWIRQAPGKGLEWVSSVGSEGKFIDYAASVKGRFTISRDNAKNSLYLQMNSLRAEDTAVYYCARHYREFRWHYYYFDYWGQGTLVTVSS VL: QSVLTQPPSVSGAPGQRVTISCTGSSSNIGAGYDVHWYQQLPGTAPKLLIYGNSNRPSGVPDRFSGSKSGTSASLAITGLQAEDEADYYCQSHDLGAHVWVFGGGTKLTVLG | 99
Fab #1 comprising a modified heavy chain constant region (Fab, V domains shown, Human Fab from the Ylanthia library; produced in HKB11 cells; also called Fab #1 mod; HC) VH: QVQLVQSGAEVKKPGASVKVSCKASGYTFTSHYMHWVRQAPGQGLEWMGLIEPSEGETEYAQRFQGRVTMTRDTSTSTVYMELSSLRSEDTAVYYCARDSSRSYPLGFDIWGQGTLVTVSS VL: QSVLTQPPSVSAAPGQKVTISCSGSSSNIGNNYVSWYQQLPGTAPKLLIYDNNKRPSGIPDRFSGSKSGTSATLGITGLQTEDEADYYCAAWDFRSSRWVFGGGTKLTVLG | 96
Fab #3 comprising a modified heavy chain constant region (Fab, V domains shown, Human Fab from the Ylanthia library; produced in HKB11 cells; also called Fab #3 mod; HC) VH: QVQLVESGGGLVKPGGSLRLSCAASGFSFGDYYVSWIRQAPGKGLEWVSAIGGSGSAVQYAESVKGRFTISRDNAKNSLYLQMNSLRAEDTAVYYCARHYREFRWHYYYFDYWGQGTLVTVSS VL: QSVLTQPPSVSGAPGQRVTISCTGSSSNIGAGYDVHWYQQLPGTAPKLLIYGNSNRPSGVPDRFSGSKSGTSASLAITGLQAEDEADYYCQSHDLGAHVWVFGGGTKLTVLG | 100

Query: Max. inhibition at 200 nM Fab [%]; subject: Fab #4 comprising a modified heavy chain constant region (Fab, V domains shown, Human Fab from the Ylanthia library; produced in HKB11 cells; also called Fab #4 mod; HC) VH: QVQLVQSGAEVKKPGASVKVSCKASGGAFTSSYMHWVRQAPGQGLEWMGIIEPTGASTLYAQRFQGRVTMTRDTSTSTVYMELSSLRSEDTAVYYCARTGIALPLGFDLWGQGTLVTVSS VL: QSVLTQPPSVSAAPGQKVTISCSGSSSNIGNNYVSWYQQLPGTAPKLLIYDNNKRPSGIPDRFSGSKSGTSATLGITGLQTEDEADYYCAAWSTRFRWVFGGGTKLTVLG
Result: 94
